Recorded activation at 1.54 µM, one value per entry.
experimental.target: PKR(wt) (Homo sapiens)
Sequence (P30613 whole entry): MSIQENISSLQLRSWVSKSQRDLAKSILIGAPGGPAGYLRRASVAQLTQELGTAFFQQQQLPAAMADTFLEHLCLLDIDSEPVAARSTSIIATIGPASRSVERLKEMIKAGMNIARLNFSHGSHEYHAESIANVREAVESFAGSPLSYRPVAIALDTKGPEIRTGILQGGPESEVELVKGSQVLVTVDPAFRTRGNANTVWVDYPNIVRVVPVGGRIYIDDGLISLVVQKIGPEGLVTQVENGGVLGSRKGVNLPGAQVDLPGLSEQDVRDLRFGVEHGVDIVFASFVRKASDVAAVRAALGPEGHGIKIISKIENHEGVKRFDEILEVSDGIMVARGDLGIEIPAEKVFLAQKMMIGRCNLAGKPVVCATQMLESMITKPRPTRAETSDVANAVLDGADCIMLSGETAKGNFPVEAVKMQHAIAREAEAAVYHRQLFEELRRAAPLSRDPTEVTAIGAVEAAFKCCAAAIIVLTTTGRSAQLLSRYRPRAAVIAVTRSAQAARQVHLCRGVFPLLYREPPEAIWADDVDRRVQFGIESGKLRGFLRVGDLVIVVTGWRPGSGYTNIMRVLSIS
run.description: Luminescence Biochemical Assay (Kinase Glo Plus), wild type PKR
condition.description: without FBP, 1.54 μM compound, read-out: AC50 LUM KGP woFBP % Fold@1.54 μM mean

• O=C(C(O)c1cccnc1)N1CC2=C(C1)CN(S(=O)(=O)c1ccc(OC(F)F)cc1)C2 (stereo not drawn) = 250 to 50000%
• COC[C@@H](C)NC(=O)N1CC2=C(C1)CN(S(=O)(=O)c1ccc3occc3c1)C2 = 75 to 250%
• Cc1cc(C(=O)N2CC3=C(C2)CN(S(=O)(=O)c2ccc4occc4c2)C3)nn1C = 75 to 250%
• Cc1cc(C(C)NC(=O)N2CC3=C(C2)CN(S(=O)(=O)c2ccc(OC(F)F)cc2)C3)c(C)o1 (stereo not drawn) = 75 to 250%
• O=C(Cc1ccc(F)cc1F)N1CC2=C(C1)CN(S(=O)(=O)c1cccnc1)C2 = 75 to 250%

Read off the recorded activation at 1.54 µM for O=C(C(O)c1cccc(F)c1)N1CC2=C(C1)CN(S(=O)(=O)c1ccc(OC(F)F)cc1)C2 (stereo not drawn)
75 to 250%

Report activation at 1.54 µM for CN1CCOc2ccc([C@@H](O)C(=O)N3CC4=C(C3)CN(S(=O)(=O)c3ccc(OC(F)F)cc3)C4)cc21 (single isomer, unassigned)
75 to 250%

Write down activation at 1.54 µM measured for item CC(C)Oc1ccc(S(=O)(=O)N2CC3=C(CN(C(=O)[C@H](O)c4ccccc4)C3)C2)cc1
75 to 250%

Return activation at 1.54 µM for the following compound: O=C(c1ccccn1)N1CC2=C(C1)CN(S(=O)(=O)c1ccc3occc3c1)C2
75 to 250%
